Target: Cytochrome P450 3A4 (Homo sapiens)
Sequence (P08684 whole entry): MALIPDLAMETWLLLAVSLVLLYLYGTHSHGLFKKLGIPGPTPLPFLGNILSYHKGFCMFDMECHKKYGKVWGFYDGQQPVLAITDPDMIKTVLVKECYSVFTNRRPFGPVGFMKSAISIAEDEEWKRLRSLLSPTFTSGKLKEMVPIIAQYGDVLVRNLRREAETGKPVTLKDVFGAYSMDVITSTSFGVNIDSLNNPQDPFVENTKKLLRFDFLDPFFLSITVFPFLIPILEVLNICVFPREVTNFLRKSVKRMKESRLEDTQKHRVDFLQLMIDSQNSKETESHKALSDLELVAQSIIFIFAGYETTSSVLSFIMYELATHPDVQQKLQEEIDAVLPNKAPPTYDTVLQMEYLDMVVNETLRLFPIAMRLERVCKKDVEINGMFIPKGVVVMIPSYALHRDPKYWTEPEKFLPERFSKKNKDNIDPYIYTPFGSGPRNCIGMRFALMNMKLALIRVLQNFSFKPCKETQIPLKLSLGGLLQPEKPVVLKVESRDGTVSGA

| smiles.notation | measured.on | IC50 |
| --- | --- | --- |
| C[C@H](NC(=O)/C=C/c1ccc(F)cc1)c1ccc(F)c(N2CCOCC2)c1 | Cytochrome P450 3A4 (Homo sapiens) | 19 µM |
| C[C@H](NC(=O)/C=C/c1ccccc1)c1cccc(N2CCOCC2)c1 | Cytochrome P450 3A4 (Homo sapiens) | 33 µM |

====

Below, each of the compounds is paired with its reported pEC50 value.
Target: Potassium voltage-gated channel subfamily KQT member 2 (Mus musculus) (UniProt Q9Z351)
Sequence (Q9Z351 whole entry, looked up): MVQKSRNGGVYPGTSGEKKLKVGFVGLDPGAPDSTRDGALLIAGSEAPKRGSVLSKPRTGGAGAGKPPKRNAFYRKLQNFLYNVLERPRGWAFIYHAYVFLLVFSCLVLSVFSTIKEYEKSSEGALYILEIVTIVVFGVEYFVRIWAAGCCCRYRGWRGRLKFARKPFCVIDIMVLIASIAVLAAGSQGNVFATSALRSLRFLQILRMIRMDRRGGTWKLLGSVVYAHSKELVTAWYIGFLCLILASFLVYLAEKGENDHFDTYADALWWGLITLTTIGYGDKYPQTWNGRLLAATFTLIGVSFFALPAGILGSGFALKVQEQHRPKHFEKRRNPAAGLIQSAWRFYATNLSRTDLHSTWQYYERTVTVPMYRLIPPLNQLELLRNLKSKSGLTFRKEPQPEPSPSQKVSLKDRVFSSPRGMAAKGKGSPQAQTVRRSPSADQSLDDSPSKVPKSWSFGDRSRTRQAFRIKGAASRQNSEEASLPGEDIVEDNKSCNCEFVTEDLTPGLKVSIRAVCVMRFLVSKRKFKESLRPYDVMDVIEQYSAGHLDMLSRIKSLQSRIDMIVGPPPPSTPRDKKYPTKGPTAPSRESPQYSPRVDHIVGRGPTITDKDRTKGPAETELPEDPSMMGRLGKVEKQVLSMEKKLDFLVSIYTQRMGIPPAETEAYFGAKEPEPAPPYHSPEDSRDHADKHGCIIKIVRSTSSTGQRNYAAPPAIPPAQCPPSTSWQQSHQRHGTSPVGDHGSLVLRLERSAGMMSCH
Experiment: Effective concentration against Potassium voltage gated channel KQT-like subfamily, member 2 (mouse) expressed in HEK 293 cells
pEC50: −log10 of the molar value.
observable: pEC50

| smiles.notation | value.observed |
| --- | --- |
| C[C@H](NC(=O)/C=C/c1ccccc1)c1cccc(N2CCOCC2)c1 | 5.52 |
| C[C@H](NC(=O)/C=C/c1ccc(F)cc1)c1ccc(F)c(N2CCOCC2)c1 | 5.92 |

====

Molecular target: Cytochrome P450 1A2 (Homo sapiens)
Sequence (P05177 whole entry): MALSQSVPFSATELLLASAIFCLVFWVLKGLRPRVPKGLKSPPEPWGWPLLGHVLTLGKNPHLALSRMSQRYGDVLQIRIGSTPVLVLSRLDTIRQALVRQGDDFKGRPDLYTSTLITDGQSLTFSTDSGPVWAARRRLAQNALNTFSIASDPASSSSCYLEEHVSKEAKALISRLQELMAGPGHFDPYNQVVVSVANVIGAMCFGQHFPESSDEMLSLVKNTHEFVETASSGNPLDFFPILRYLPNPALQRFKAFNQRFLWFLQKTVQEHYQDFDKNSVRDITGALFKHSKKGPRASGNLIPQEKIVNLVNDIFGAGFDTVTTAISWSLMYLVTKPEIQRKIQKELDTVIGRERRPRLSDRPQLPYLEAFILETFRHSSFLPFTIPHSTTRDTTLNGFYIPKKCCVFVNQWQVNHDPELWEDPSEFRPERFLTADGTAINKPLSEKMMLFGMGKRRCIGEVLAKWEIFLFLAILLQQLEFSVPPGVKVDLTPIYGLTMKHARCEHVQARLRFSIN
Experiment: Inhibition of recombinant human Cytochrome P450 1A2
pIC50: −log10 of the molar value.

| smiles.notation | pIC50 |
| --- | --- |
| C[C@H](NC(=O)/C=C/c1ccccc1)c1cccc(N2CCOCC2)c1 | 4.11 |

====

Biological target: Cytochrome P450 2D6 (Homo sapiens, UniProt P10635)
Sequence (P10635 whole entry): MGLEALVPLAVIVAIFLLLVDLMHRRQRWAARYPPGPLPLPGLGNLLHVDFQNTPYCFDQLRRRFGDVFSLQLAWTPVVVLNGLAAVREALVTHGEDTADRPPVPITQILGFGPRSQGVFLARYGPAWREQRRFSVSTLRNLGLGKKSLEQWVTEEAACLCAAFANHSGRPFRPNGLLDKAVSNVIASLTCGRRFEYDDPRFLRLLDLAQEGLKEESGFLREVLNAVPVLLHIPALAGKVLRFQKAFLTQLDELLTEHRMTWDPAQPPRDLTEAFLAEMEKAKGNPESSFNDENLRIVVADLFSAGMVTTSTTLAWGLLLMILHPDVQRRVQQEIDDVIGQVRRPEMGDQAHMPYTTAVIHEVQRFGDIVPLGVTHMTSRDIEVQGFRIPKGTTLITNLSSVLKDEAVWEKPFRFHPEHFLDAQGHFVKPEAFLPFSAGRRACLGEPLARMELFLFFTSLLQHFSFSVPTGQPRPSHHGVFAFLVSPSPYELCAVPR
Assay: Inhibition of recombinant human Cytochrome P450 2D6
observable: IC50

| smiles.notation | value.observed |
| --- | --- |
| C[C@H](NC(=O)/C=C/c1ccccc1)c1cccc(N2CCOCC2)c1 | > 100 µM |

====

Target: Potassium voltage-gated channel subfamily KQT member 2 (Homo sapiens)
Sequence (O43526 whole entry): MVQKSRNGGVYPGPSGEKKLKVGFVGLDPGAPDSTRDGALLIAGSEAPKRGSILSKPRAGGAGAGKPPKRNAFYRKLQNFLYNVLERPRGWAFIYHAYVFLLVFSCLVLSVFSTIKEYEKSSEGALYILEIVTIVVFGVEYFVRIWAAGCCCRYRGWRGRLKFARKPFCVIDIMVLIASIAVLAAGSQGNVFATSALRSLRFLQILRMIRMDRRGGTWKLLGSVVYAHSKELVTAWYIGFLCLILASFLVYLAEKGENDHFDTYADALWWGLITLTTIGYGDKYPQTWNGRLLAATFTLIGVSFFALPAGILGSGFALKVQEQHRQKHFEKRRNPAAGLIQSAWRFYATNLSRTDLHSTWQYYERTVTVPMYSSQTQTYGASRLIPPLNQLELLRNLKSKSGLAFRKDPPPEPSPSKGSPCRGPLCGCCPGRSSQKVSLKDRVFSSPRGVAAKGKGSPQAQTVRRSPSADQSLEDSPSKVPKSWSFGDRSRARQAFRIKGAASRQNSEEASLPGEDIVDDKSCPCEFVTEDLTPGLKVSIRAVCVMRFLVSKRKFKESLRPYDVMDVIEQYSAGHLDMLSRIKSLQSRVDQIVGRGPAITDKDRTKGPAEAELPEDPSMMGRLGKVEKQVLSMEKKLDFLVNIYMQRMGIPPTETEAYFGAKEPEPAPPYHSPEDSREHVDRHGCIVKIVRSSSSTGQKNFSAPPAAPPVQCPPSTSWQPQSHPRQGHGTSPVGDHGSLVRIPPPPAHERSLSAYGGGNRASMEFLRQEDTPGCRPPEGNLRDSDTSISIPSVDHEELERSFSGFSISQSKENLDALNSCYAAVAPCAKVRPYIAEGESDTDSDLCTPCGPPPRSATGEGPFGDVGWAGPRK
Experiment: Effective concentration against Potassium voltage gated channel, KQT-like subfamily, member 2 expressed in SH-SY5Y human neuroblastoma cells
Below, each of the compounds is paired with its reported EC50 value.
observable: EC50 (nM)

| smiles.notation | observable | units.symbol | value.observed |
| --- | --- | --- | --- |
| C[C@H](NC(=O)/C=C/c1ccc(F)cc1)c1ccc(F)c(N2CCOCC2)c1 | EC50 | nM | 1550 |
| C[C@H](NC(=O)/C=C/c1ccccc1)c1cccc(N2CCOCC2)c1 | EC50 | nM | 690 |
